System: IGROV1 complex spheroids (HUVEC, MSC), viability % test/control
ASSAY_REMARKS: Anticancer human tumor IGROV1 cell line growth inhibition [GQUAD]
STATED_CONDITIONS: second compound 0.316 µM; first compound 0.00316 µM; stronger effect = lower value
QUANTITY: viability, T/C (%)
Use % as the unit, but write only the number.

So, CC[C@@]1(O)C(=O)OCc2c1cc1n(c2=O)Cc2cc3c(CN(C)C)c(O)ccc3nc2-1 + Cc1cnc(CNC(=O)c2c(=O)c3ccc(N4CCCN(C)CC4)nc3n3c2sc2ccccc23)cn1 ? Its viability, T/C was 29.3

Query CC[C@@]1(O)C(=O)OCc2c1cc1n(c2=O)Cc2cc3c(CN(C)C)c(O)ccc3nc2-1 + Cc1[nH]c2ccc(F)cc2c1-c1nc2c3cccnc3c3ncccc3c2[nH]1 yields viability, T/C of 58.5

Item: Cn1ncnc1[C@H]1c2n[nH]c(=O)c3cc(F)cc(c23)N[C@@H]1c1ccc(F)cc1 + Cc1[nH]c2ccc(F)cc2c1-c1nc2c3cccnc3c3ncccc3c2[nH]1 | viability, T/C: 81.9

In plain terms, CCc1c2c(nc3ccc(O)cc13)-c1cc3c(c(=O)n1C2)COC(=O)[C@]3(O)CC + CN(C)c1ccc(Nc2c3ccc(NC(=O)CCN4CCCC4)cc3nc3cc(NC(=O)CCN4CCCC4)ccc23)cc1 has a documented viability, T/C of 16.7

Cn1ncnc1[C@H]1c2n[nH]c(=O)c3cc(F)cc(c23)N[C@@H]1c1ccc(F)cc1 + CN(C)c1ccc(Nc2c3ccc(NC(=O)CCN4CCCC4)cc3nc3cc(NC(=O)CCN4CCCC4)ccc23)cc1 has a reported viability, T/C of 77.7

Per the records, this molecule ( Cc1[nH]c2ccccc2c1CCNCc1ccc(/C=C/C(=O)NO)cc1 + CN(C)c1ccc(Nc2c3ccc(NC(=O)CCN4CCCC4)cc3nc3cc(NC(=O)CCN4CCCC4)ccc23)cc1 ) has viability, T/C equal to 77.7

====

System: IGROV1 complex spheroids (HUVEC, MSC), viability % test/control
ASSAY_REMARKS: Anticancer human tumor IGROV1 cell line growth inhibition [GQUAD]; active = viability on the fitted dose curve at most 10% of control; inactive = the rest;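 also: spheroids exposed to compounds for 7 days before readout; 100% = DMSO vehicle control viability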
STATED_CONDITIONS: second compound 1 µM; first compound 10 µM
Allowed answers: active, inactive

Consider the following illustrative entries.
>  <MOLECULE>
COc1ccc([C@@H](O)c2cc(-c3ncnc4cc(N5CCOCC5)ccc34)c(F)cc2Cl)nn1 + CN(C)c1ccc(Nc2c3ccc(NC(=O)CCN4CCCC4)cc3nc3cc(NC(=O)CCN4CCCC4)ccc23)cc1

>  <LABEL_CLASS>
active

$$$$
>  <MOLECULE>
O=C(NO)c1cnc(N2CCN(S(=O)(=O)c3ccc4ccccc4c3)CC2)nc1 + Cc1[nH]c2ccc(F)cc2c1-c1nc2c3cccnc3c3ncccc3c2[nH]1

>  <LABEL_CLASS>
active

$$$$
>  <MOLECULE>
CCCS(=O)(=O)Nc1ccc(F)c(C(=O)c2c[nH]c3ncc(-c4ccc(Cl)cc4)cc23)c1F + Cc1[nH]c2ccc(F)cc2c1-c1nc2c3cccnc3c3ncccc3c2[nH]1

>  <LABEL_CLASS>
active

$$$$
>  <MOLECULE>
COc1cccc2c1C(=O)c1c(O)c3c(c(O)c1C2=O)CC(O)(C(=O)CO)CC3OC1CC(N)C(O)C(C)O1 (stereo unspecified) + CN(C)c1ccc(Nc2c3ccc(NC(=O)CCN4CCCC4)cc3nc3cc(NC(=O)CCN4CCCC4)ccc23)cc1

>  <LABEL_CLASS>
active

$$$$

Enquiry: Look up the recorded call for COc1ncnc(C2CC2)c1-c1ncc2cnn(Cc3ccc(-c4nc(C(F)(F)F)cn4C(C)C)cc3)c2n1 + Cc1cnc(CNC(=O)c2c(=O)c3ccc(N4CCCN(C)CC4)nc3n3c2sc2ccccc23)cn1 in this test.
Return: inactive

Enquiry: Recorded test outcome, item COc1ccc([C@@H](O)c2cc(-c3ncnc4cc(N5CCOCC5)ccc34)c(F)cc2Cl)nn1 + Cc1cnc(CNC(=O)c2c(=O)c3ccc(N4CCCN(C)CC4)nc3n3c2sc2ccccc23)cn1
Return: active

====

System: IGROV1 complex spheroids (HUVEC, MSC), viability % test/control
ASSAY_REMARKS: Anticancer human tumor IGROV1 cell line growth inhibition [GQUAD]; active = viability on the fitted dose curve at most 10% of control; inactive = the rest;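 also: spheroids exposed to compounds for 7 days before readout; 100% = DMSO vehicle control viability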
STATED_CONDITIONS: second compound 10 µM; first compound 1 µM
Text: DNA G-quadruplex Stabilizer Agents in Combinations in Complex Spheroids A high-throughput screen of multi-cell type tumor spheroids was designed to identify active combinations of DNA G-quadruplex stabilizer agents and targeted small molecules. […] Compounds. […] If the clinical Cmax for an agent had not been determined, the highest concentration tested was 10 microM. […]
// allowed return values: active, inactive

>  <COMPOUND>
CCCS(=O)(=O)Nc1ccc(F)c(C(=O)c2c[nH]c3ncc(-c4ccc(Cl)cc4)cc23)c1F + Cc1cnc(CNC(=O)c2c(=O)c3ccc(N4CCCN(C)CC4)nc3n3c2sc2ccccc23)cn1

>  <LABEL_CLASS>
active

$$$$
>  <COMPOUND>
Cc1cccc(N(C)C(=O)C2C(O)CCN2c2nc(C)cc(C(F)(F)F)c2C#N)c1 (stereo not drawn) + CN(C)c1ccc(Nc2c3ccc(NC(=O)CCN4CCCC4)cc3nc3cc(NC(=O)CCN4CCCC4)ccc23)cc1

>  <LABEL_CLASS>
inactive

$$$$
>  <COMPOUND>
COc1cccc2c1C(=O)c1c(O)c3c(c(O)c1C2=O)CC(O)(C(=O)CO)CC3OC1CC(N)C(O)C(C)O1 (stereo not drawn) + Cc1[nH]c2ccc(F)cc2c1-c1nc2c3cccnc3c3ncccc3c2[nH]1

>  <LABEL_CLASS>
active

$$$$
>  <COMPOUND>
Nc1ccn(C2OC(CO)C(O)C2(F)F)c(=O)n1 (stereo not drawn) + Cc1[nH]c2ccc(F)cc2c1-c1nc2c3cccnc3c3ncccc3c2[nH]1

>  <LABEL_CLASS>
active

$$$$

Enquiry: Assay result, entry COc1ncnc(C2CC2)c1-c1ncc2cnn(Cc3ccc(-c4nc(C(F)(F)F)cn4C(C)C)cc3)c2n1 + Cc1[nH]c2ccc(F)cc2c1-c1nc2c3cccnc3c3ncccc3c2[nH]1 — outcome?
Return: active

Enquiry: Just curious, what result did Nc1ccn(C2OC(CO)C(O)C2(F)F)c(=O)n1 (stereo not drawn) + Cc1cnc(CNC(=O)c2c(=O)c3ccc(N4CCCN(C)CC4)nc3n3c2sc2ccccc23)cn1 get here?
Return: active

Enquiry: # fetch the recorded call for O=C(c1cc(Cc2n[nH]c(=O)c3ccccc23)ccc1F)N1CCN(C(=O)C2CC2)CC1 + CN(C)c1ccc(Nc2c3ccc(NC(=O)CCN4CCCC4)cc3nc3cc(NC(=O)CCN4CCCC4)ccc23)cc1 here
Return: inactive

Enquiry: What call does the record list for COc1cc(C2c3cc4c(cc3C(OC3OC5COC(C)OC5C(O)C3O)C3COC(=O)C23)OCO4)cc(OC)c1O (stereo not drawn) + CN(C)c1ccc(Nc2c3ccc(NC(=O)CCN4CCCC4)cc3nc3cc(NC(=O)CCN4CCCC4)ccc23)cc1 ?
Return: active

====

Item-by-item account of viability, T/C
System: IGROV1 complex spheroids (HUVEC, MSC), viability % test/control
ASSAY_REMARKS: Anticancer human tumor IGROV1 cell line growth inhibition [GQUAD];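 also: spheroids exposed to compounds for 7 days before readout; 100% = DMSO vehicle control viability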
STATED_CONDITIONS: second compound 0.316 µM; first compound 0.0316 µM; stronger effect = lower value
Give just the number in %; leave the unit off.

Reference set, count: 2
>  <COMPOUND>
O=C(NO)c1cnc(N2CCN(S(=O)(=O)c3ccc4ccccc4c3)CC2)nc1 + CN(C)c1ccc(Nc2c3ccc(NC(=O)CCN4CCCC4)cc3nc3cc(NC(=O)CCN4CCCC4)ccc23)cc1

>  <TEST_TARGET>
IGROV1 complex spheroids (HUVEC, MSC), viability % test/control

>  <QUANTITATIVE_RESULT>
66.6

$$$$
>  <COMPOUND>
CCCS(=O)(=O)Nc1ccc(F)c(C(=O)c2c[nH]c3ncc(-c4ccc(Cl)cc4)cc23)c1F + Cc1cnc(CNC(=O)c2c(=O)c3ccc(N4CCCN(C)CC4)nc3n3c2sc2ccccc23)cn1

>  <TEST_TARGET>
IGROV1 complex spheroids (HUVEC, MSC), viability % test/control

>  <QUANTITATIVE_RESULT>
21

$$$$

Let's switch to this compound now.
In plain terms, O=C(NO)c1cnc(N2CCN(S(=O)(=O)c3ccc4ccccc4c3)CC2)nc1 + Cc1[nH]c2ccc(F)cc2c1-c1nc2c3cccnc3c3ncccc3c2[nH]1 has a documented viability, T/C of 91.3

====

Tested on: IGROV1 complex spheroids (HUVEC, MSC), viability % test/control
ASSAY_REMARKS: Anticancer human tumor IGROV1 cell line growth inhibition [GQUAD];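 also: spheroids exposed to compounds for 7 days before readout; 100% = DMSO vehicle control viability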
STATED_CONDITIONS: second compound 1 µM; first compound 0.316 µM; stronger effect = lower value
QUANTITY: viability, T/C (%)
Write the answer as a number in %, unit excluded.

Look over these answered cases.
>  <COMPOUND>
C=CC(=O)N1CCN(c2nc(=O)n(-c3c(C)ccnc3C(C)C)c3nc(-c4c(O)cccc4F)c(F)cc23)C(C)C1 (centres undefined) + Cc1cnc(CNC(=O)c2c(=O)c3ccc(N4CCCN(C)CC4)nc3n3c2sc2ccccc23)cn1

>  <QUANTITY>
viability, T/C

>  <QUANTITATIVE_RESULT>
17

$$$$
>  <COMPOUND>
O=C(c1cc(Cc2n[nH]c(=O)c3ccccc23)ccc1F)N1CCN(C(=O)C2CC2)CC1 + Cc1cnc(CNC(=O)c2c(=O)c3ccc(N4CCCN(C)CC4)nc3n3c2sc2ccccc23)cn1

>  <QUANTITY>
viability, T/C

>  <QUANTITATIVE_RESULT>
18.9

$$$$
>  <COMPOUND>
CCc1c2c(nc3ccc(O)cc13)-c1cc3c(c(=O)n1C2)COC(=O)[C@]3(O)CC + CN(C)c1ccc(Nc2c3ccc(NC(=O)CCN4CCCC4)cc3nc3cc(NC(=O)CCN4CCCC4)ccc23)cc1

>  <QUANTITY>
viability, T/C

>  <QUANTITATIVE_RESULT>
2.04

$$$$
>  <COMPOUND>
CC1COCCN1c1cc(-c2ccnn2C)c2ccnc(-c3ccn[nH]3)c2n1 (centres undefined) + CN(C)c1ccc(Nc2c3ccc(NC(=O)CCN4CCCC4)cc3nc3cc(NC(=O)CCN4CCCC4)ccc23)cc1

>  <QUANTITY>
viability, T/C

>  <QUANTITATIVE_RESULT>
11.7

$$$$
>  <COMPOUND>
COc1ccc([C@@H](O)c2cc(-c3ncnc4cc(N5CCOCC5)ccc34)c(F)cc2Cl)nn1 + CN(C)c1ccc(Nc2c3ccc(NC(=O)CCN4CCCC4)cc3nc3cc(NC(=O)CCN4CCCC4)ccc23)cc1

>  <QUANTITY>
viability, T/C

>  <QUANTITATIVE_RESULT>
74

$$$$

CC(C)n1c(=O)n(C)c2cnc3cc(F)c(-c4ccc(OCCCN5CCCCC5)nc4)cc3c21 + CN(C)c1ccc(Nc2c3ccc(NC(=O)CCN4CCCC4)cc3nc3cc(NC(=O)CCN4CCCC4)ccc23)cc1 yielded viability, T/C of 58.9

The value of viability, T/C measured for the compound COc1cccc2c1C(=O)c1c(O)c3c(c(O)c1C2=O)CC(O)(C(=O)CO)CC3OC1CC(N)C(O)C(C)O1 (centres undefined) + Cc1cnc(CNC(=O)c2c(=O)c3ccc(N4CCCN(C)CC4)nc3n3c2sc2ccccc23)cn1 turned out to be 7.95

Reported viability, T/C for CC1COCCN1c1cc(-c2ccnn2C)c2ccnc(-c3ccn[nH]3)c2n1 (centres undefined) + Cc1[nH]c2ccc(F)cc2c1-c1nc2c3cccnc3c3ncccc3c2[nH]1 was 4.19

In plain terms, COc1cc(C2c3cc4c(cc3C(OC3OC5COC(C)OC5C(O)C3O)C3COC(=O)C23)OCO4)cc(OC)c1O (centres undefined) + CN(C)c1ccc(Nc2c3ccc(NC(=O)CCN4CCCC4)cc3nc3cc(NC(=O)CCN4CCCC4)ccc23)cc1 has a documented viability, T/C of 18.1

Per the records, this compound ( CC1COCCN1c1cc(-c2ccnn2C)c2ccnc(-c3ccn[nH]3)c2n1 (centres undefined) + Cc1cnc(CNC(=O)c2c(=O)c3ccc(N4CCCN(C)CC4)nc3n3c2sc2ccccc23)cn1 ) has viability, T/C equal to 5.92

response.value for CC1COCCN1c1cc(C2(S(C)(=N)=O)CC2)nc(-c2ccnc3[nH]ccc23)n1 (centres undefined) + Cc1cnc(CNC(=O)c2c(=O)c3ccc(N4CCCN(C)CC4)nc3n3c2sc2ccccc23)cn1 (field: viability, T/C) = 13.3

In plain terms, Cn1ncnc1[C@H]1c2n[nH]c(=O)c3cc(F)cc(c23)N[C@@H]1c1ccc(F)cc1 + CN(C)c1ccc(Nc2c3ccc(NC(=O)CCN4CCCC4)cc3nc3cc(NC(=O)CCN4CCCC4)ccc23)cc1 has a documented viability, T/C of 28.8

Record C=CC(=O)N1CCN(c2nc(=O)n(-c3c(C)ccnc3C(C)C)c3nc(-c4c(O)cccc4F)c(F)cc23)C(C)C1 (centres undefined) + Cc1[nH]c2ccc(F)cc2c1-c1nc2c3cccnc3c3ncccc3c2[nH]1 . Reported viability, T/C: 6.26

// sample O=c1[nH]cc(F)c(=O)[nH]1 + CN(C)c1ccc(Nc2c3ccc(NC(=O)CCN4CCCC4)cc3nc3cc(NC(=O)CCN4CCCC4)ccc23)cc1 , its viability, T/C was 78.8
